For each of the molecules below, state its AC50.
TARGET DESC: PD-L1 (Homo sapiens)
Construct: determine if they can specifically dimerize the extracellular domains of PD-L1
Sequence (Q9NZQ7 19-238 limits assumed): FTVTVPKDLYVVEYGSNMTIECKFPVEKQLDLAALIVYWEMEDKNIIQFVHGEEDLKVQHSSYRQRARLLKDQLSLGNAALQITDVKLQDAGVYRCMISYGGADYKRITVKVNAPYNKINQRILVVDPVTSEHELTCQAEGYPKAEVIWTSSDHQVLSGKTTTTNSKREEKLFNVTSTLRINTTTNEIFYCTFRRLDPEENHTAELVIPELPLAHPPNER
Sequence (Q9NZQ7 19-238 limits assumed): as above
RUN DESCRIPTION: PD-L1/PD-L1 dimerization biochemical protein-protein interaction assay (ALPHA)
Assay type: binding
CONDITION PARAMETERS: compound-induced PD-L1 dimerization, head prints '1 nM' (0.5 nM His-tagged PD-L1 and 0.5 nM FLAG-tagged PD-L1), read-out: AC50 PDL1 Dimer Alpha 1 nM

Please review the following examples before continuing.
mol=COc1nc(-c2cccc(-c3cccc(-c4ccc5ncc(CN6CC(O)C6)n5c4)c3Cl)c2Cl)ccc1CN1CC(O)C1 target_desc="PD-L1 (Homo sapiens)" reported_endpoint=AC50 result="≥ 10 µM"
mol=COc1nc(OCc2cccc(-c3cccc(COc4nc(OC)c(CNC[C@H](O)CC(=O)O)cc4Br)c3Cl)c2Cl)c(Br)cc1CNC[C@H](O)CC(=O)O target_desc="PD-L1 (Homo sapiens)" reported_endpoint=AC50 result="≥ 10 µM"

Reported AC50 of COc1nc(OCc2cccc(-c3cccc(COc4nc(OC)c(CNC5(C(=O)O)CC5)cc4Cl)c3C)c2C)c(Cl)cc1CNC1(C(=O)O)CC1 : ≥ 10 µM

---

TARGET DESC: PD-1/PD-L1 interaction (Homo sapiens, UniProt Q9NZQ7)
Construct: expressed in transfected cells; host or cells: CHO cells (aAPC-PD-L1) co-cultured with Jurkat cells overexpressing PD-1 and an NFAT-luciferase reporter
Sequence (Q9NZQ7 19-290): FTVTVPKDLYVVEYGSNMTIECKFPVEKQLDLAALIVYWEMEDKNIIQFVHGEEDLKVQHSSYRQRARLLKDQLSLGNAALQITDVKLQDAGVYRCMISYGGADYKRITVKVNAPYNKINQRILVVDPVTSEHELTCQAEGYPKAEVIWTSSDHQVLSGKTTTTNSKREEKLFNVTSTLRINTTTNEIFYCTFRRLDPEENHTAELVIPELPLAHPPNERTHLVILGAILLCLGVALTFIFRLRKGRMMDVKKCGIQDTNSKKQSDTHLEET
RUN DESCRIPTION: PD-1/PD-L1 NFAT reporter co-culture assay
Type: cell-based
CONDITION PARAMETERS: Jurkat PD-1 NFAT-luciferase cells co-cultured with aAPC-PD-L1 CHO cells, 6 hrs at 37° C.; read-out: EC50 NFAT Luciferase
For each entry below, report its EC50 value.
Answers are plain numbers, in nM.

These recorded examples may help you get a feel for the data.
mol=COc1nc(O[C@H]2CCc3c(-c4cccc(-c5ccc6c(c5)C[C@@H](N)C6)c4Cl)cccc32)c(Br)cc1CNC[C@@H]1CCC(=O)N1 reported_endpoint=EC50 measured_number=794
mol=COc1nc(-c2cccc(-c3cccc(-c4ccc5cc(CN(C)C)[nH]c5c4)c3Cl)c2Cl)ccc1CNC[C@@H]1CCC(=O)N1 reported_endpoint=EC50 measured_number=1730
mol=Cc1c(COc2cc(OCc3cncc(C#N)c3)c(CNCCO)cc2Cl)cccc1-c1cccc2c1CCN2C(=O)c1ccc(CNCCO)c(OCc2cncc(C#N)c2)c1 reported_endpoint=EC50 measured_number=1430
mol=COc1nc(OCc2cccc(-c3cccc(COc4nc(OC)c(CNC[C@@H](O)CC(=O)O)cc4Br)c3Cl)c2Cl)c(Br)cc1CNC[C@@H](O)CC(=O)O reported_endpoint=EC50 measured_number=106
mol=Cc1c(COc2cc(OCc3cncc(C#N)c3)c(CN[C@@](C)(CO)C(=O)O)cc2Cl)cccc1-c1cccc(-c2ccc(CN[C@H]3CC[C@H](O)CC3)cc2)c1C reported_endpoint=EC50 measured_number=314

Your task in this section: give EC50 for each listed record.
1. Cc1c(COc2nc(OCCC(N)=O)c(CNCC(=O)O)cc2Cl)cccc1-c1cccc(COc2nc(OCCC(N)=O)c(CNCC(=O)O)cc2Cl)c1C
2. Cc1c(COc2cc(OCc3cncc(C#N)c3)c(CNC(CO)CO)cc2Cl)cccc1-c1cccc(COc2cc(OCc3cncc(C#N)c3)c(CNC(CO)CO)cc2Cl)c1C
3. Cc1c(COc2cc(OCc3cncc(C#N)c3)c(CNCCO)cc2Cl)cccc1-c1cccc(-c2ccc(CNCCO)cc2)c1CF

[A]
1: 2300; 2: 488; 3: 408
